test system: IgE antibodies from patients; experiment: Wheat epitope mapping (2): overlapping 10-amino-acid peptide fragments shifted by one amino acid; assay type: binding, human; conditions: serum of patient P28 (WDEIA);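 note: key of grades: preferably = shorter partial sequence still acting as epitope; more preferably = sequence improving IgE binding; key = particularly important sequence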
measured quantity: epitope sequence binding to IgE antibody, rank (Key/Preferably/More preferably)

[
  {
    "substance": "1867 (TVRTLQR; REGION 1..7: note = epitope) [compound 1867]",
    "reported value": "Preferably"
  },
  {
    "substance": "1868 (TVRTLQ; REGION 1..6: note = epitope) [compound 1868]",
    "reported value": "Key"
  },
  {
    "substance": "1959 (QFPGQQ; REGION 1..6: note = epitope) [compound 1959]",
    "reported value": "Preferably"
  }
]
